pIC50: −log10 of the molar value.
In what follows, each item is paired with its pIC50 for Aromatase (Homo sapiens).
QUANTITY NAME: pIC50

SMILES NOTATION: CCCCCCCCCCc1cn(C(c2ccccc2)c2ccccc2)nn1
pIC50: 4.87

A. CCCCCCCCCCc1cn(Cc2ccc(C#N)cc2)nn1
B. N#Cc1ccc(C(c2ccc(C#N)cc2)n2cc(COc3ccc(-c4ccccc4)cc3)nn2)cc1
Please indicate which has the smaller reported pIC50: A , or B . Let me know the label of the one you choose. B
(B: 4.87, A: 5.10)
